Tested on: OVCAR-5
METHOD DESCRIPTION: NCI tumour cell line growth inhibition, 48 h
Calls of active or inactive are those of the source. Cut-off read from the data, not from the text of the source: active = GI50 up to about 1.1 µM and inactive = higher.

- COMPOUND: "COc1cccc(/C=C2\\C(=O)N(C(=O)Cc3ccccc3)N=C2C)c1"
  GI50: "> 100 µM (inactive)"
- COMPOUND: "CSc1nc2nc(C)c(C)nc2c(=O)[nH]1"
  GI50: "> 100 µM (inactive)"
- COMPOUND: "CCCCCCc1cc2cc(C(=O)Nc3nc(C45CC6CC(CC(C6)C4)C5)cs3)c(=O)oc2cc1O"
  GI50: "16 µM (inactive)"
- COMPOUND: "Cc1ccc(NC(=O)/C(=N\\NC(N)=O)c2c(O)c3ccccc3[nH]c2=O)cc1"
  GI50: "> 100 µM (inactive)"
- COMPOUND: "Cc1cc(NS(=O)(=O)c2ccc(Nc3c4ccccc4nc4c(C(=O)N5CCN(CCOS(C)(=O)=O)CC5)cccc34)cc2)no1"
  GI50: "> 100 µM (inactive)"
- COMPOUND: "O=C(Nc1ccc2[nH]c(C(=O)N3CC(CCl)c4ccc([N+](=O)[O-])cc43)cc2c1)c1cc2ccccc2o1 (centres undefined)"
  GI50: "893 µM (inactive)"
- COMPOUND: "O=C(OCc1ccccc1)N1N=NC2C3CC(OCc4ccccc4)(OCc4ccccc4)C(O3)C21 (centres undefined)"
  GI50: "26 µM (inactive)"
- COMPOUND: "COc1ccc(C2NC3=C(CCCC3)N2)cc1"
  GI50: "80.2 µM (inactive)"
- COMPOUND: "N#CC1(c2nc3ccccc3o2)C(=O)C(=O)N(C2C3CC4CC(C3)CC2C4)C(=O)C1=O (centres undefined)"
  GI50: "> 100 µM (inactive)"

----------
Listed here are compounds together with their documented GI50.
Test system: M14
METHOD DESCRIPTION: NCI tumour cell line growth inhibition, 48 h
The source made the active and inactive calls. Cut-off read from the data, not from the text of the source: active = GI50 up to about 1.1 µM and inactive = higher.
MEASURED PARAMETER: GI50

- COMPOUND: "CCC1NC(=O)C1NC(=O)OC (stereo not given)"
  MEASURED PARAMETER: "GI50"
  OBS VALUE: "> 100 µM (inactive)"
- COMPOUND: "COc1ccc(C(OCC2OC(n3cc(C)c(=O)[nH]c3=O)CC2n2cc(Cn3cc(F)c(=O)[nH]c3=O)nn2)(c2ccccc2)c2ccccc2)cc1 (stereo not given)"
  MEASURED PARAMETER: "GI50"
  OBS VALUE: "4.58 µM (inactive)"
- COMPOUND: "COc1cc(C)cc(C(=O)/C=C/c2ccccc2)c1O"
  MEASURED PARAMETER: "GI50"
  OBS VALUE: "16.6 µM (inactive)"
- COMPOUND: "CC(C)=CCC[C@@H](C)C1=C(Nc2ccccc2F)C(=O)C(C)=C(O)C1=O"
  MEASURED PARAMETER: "GI50"
  OBS VALUE: "14.2 µM (inactive)"
- COMPOUND: "Cc1cc(NS(=O)(=O)c2ccc(Nc3c4ccccc4nc4c(C(=O)N5CCN(CCOS(C)(=O)=O)CC5)cccc34)cc2)no1"
  MEASURED PARAMETER: "GI50"
  OBS VALUE: "> 100 µM (inactive)"

Value source: ChEMBL document CHEMBL1201862
